Measured values drawn from patent US20260217716A1 for this set.

- targetOrSystem: Human androgen receptors (Homo sapiens, UniProt P10275, T878A)
- Construct: Human androgen receptors obtained from human LNCaP cells were used; host or cells: human LNCaP cells
- Sequence (P10275 whole entry T878A): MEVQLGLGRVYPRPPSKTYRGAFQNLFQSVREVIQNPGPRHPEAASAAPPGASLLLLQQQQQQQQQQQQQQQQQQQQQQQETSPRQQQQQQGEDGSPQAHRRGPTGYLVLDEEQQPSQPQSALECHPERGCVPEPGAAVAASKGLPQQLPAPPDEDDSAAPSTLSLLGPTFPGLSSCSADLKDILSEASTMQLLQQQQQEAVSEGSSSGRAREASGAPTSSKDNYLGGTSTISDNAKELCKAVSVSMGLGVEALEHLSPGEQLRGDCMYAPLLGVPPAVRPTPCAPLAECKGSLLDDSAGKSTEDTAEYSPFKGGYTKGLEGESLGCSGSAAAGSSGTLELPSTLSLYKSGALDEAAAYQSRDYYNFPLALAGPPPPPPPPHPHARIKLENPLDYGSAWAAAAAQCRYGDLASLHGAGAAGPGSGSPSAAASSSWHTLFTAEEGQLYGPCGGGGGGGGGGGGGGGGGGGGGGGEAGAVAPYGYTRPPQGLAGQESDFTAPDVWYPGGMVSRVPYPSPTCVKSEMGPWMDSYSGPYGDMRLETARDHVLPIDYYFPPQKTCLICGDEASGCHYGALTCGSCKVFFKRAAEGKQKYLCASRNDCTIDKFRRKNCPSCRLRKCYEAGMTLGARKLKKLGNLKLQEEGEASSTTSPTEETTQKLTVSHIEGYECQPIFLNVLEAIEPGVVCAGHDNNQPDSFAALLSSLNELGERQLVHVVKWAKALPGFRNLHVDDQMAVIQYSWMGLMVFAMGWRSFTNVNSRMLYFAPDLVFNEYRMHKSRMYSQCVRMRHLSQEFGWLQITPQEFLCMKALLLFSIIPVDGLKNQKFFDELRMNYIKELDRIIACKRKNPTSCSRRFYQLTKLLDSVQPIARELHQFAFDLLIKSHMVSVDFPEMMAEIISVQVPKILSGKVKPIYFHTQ
- assayDetails: Biochemical AR LBD antagonism (Eurofins AR radioligand binding assay)
- particulars: Table 4; read-out: Biochemical AR LBD Antagonism: Average IC50
pIC50: −log10 of the molar value.
propertyLabel: pIC50

Request: Given the compound `CC[C@@H](Nc1ccc2nnc(C(F)(F)F)n2n1)c1ccc(F)cc1` , what is its reported pIC50?
Result: < 6.30

Request: Fill in: pIC50 of `C[C@@H](Nc1ccc2nnc(C(F)F)n2n1)c1ccc(F)cc1` is ___
Result: < 6.30

Request: Request the reported pIC50 associated with `C[C@@H](Nc1ccc2nnc(C(F)(F)F)n2n1)c1ccc(F)cc1`
Result: < 6.30

Request: Can you share its pIC50? I mean this compound: `C[C@@H](Nc1ccc2nnc(C(F)(F)F)n2n1)c1cc(Cl)cc(Cl)c1`
Result: < 6.30

Request: Query (compound): `C[C@H](c1ccc(F)cc1)N(C)c1ccc2nnc(C(F)(F)F)n2n1` ; field requested: pIC50
Result: 6.30 to 7.29

Request: Please give the measured pIC50 for this compound: `COc1cc(Cl)cc([C@@H](C)Nc2ccc3nnc(C(F)(F)F)n3n2)c1`
Result: 6.30 to 7.29

Request: Can you share its pIC50? I mean this compound: `Cc1nnc2ccc(N[C@H](C)c3ccc(F)cc3)nn12`
Result: < 6.30

Request: Using the record for `C[C@@H](Nc1ccc2nnc(C(F)(F)F)n2n1)c1cc(F)cc(F)c1` , report its pIC50.
Result: < 6.30

Request: Report pIC50 for `COc1cc([C@@H](C)Nc2ccc3nnc(C(F)(F)F)n3n2)ccc1F` please.
Result: < 6.30
